- study.target: T1, human TSLP (human, UniProt Q969D9 29-159)
- T1 construct: also called hTSLP; rhTSLP
- assay.details: yeast surface display, affinity maturation library
experimental.endpoint: binding result

| binder | experimental.endpoint | measurement |
| --- | --- | --- |
| Ab clone 38.021 (yeast surface display) (scFv, V domains shown, YSD clone; also called BDG38_021) VH: QMQLVESGGGVVQPGRSLRLSCAASGFAFDTYGMHWVRQAPGKGLEWVAVIWYDGSNTVYADSVKGRFTITRDNSKNTLNLQMNSLRAEDTAVYYCARAPQWYLSAEAFDLWGQGTMVTVSS VL: SYVLTQPPSVSVAPGQTARITCGGNLIGSKLVHWYQQKPGQAPVLVVYDDSDRPSRIPERFSGSNSGNTATLTISRVEAGDEADYYCQVWDHSSDHYVFGGGTKLTVL | binding result | binds |
| Ab clone 38.019 (yeast surface display) (scFv, V domains shown, YSD clone; also called BDG38_019) VH: QMQLVESGGGVVQPGRSLRLSCAASGFAFRTYGMHWVRQAPGKGLEWVAVIWYDGSNTHYADSVKGRFTITRDNSKNTLNLQMNSLRAEDTAVYYCVRAPQWYLSAEAFDLWGQGTMVTVSS VL: SYVLTQPPSVSVAPGQTARITCGGNLIGSKLVHWYQQKPGQAPVLVVYDDSDRPSRIPERFSGSNSGNTATLTISRVEAGDEADYYCQVWDYSSNHVVFGGGTKLTVL | binding result | binds |
| Ab clone 38.040 (yeast surface display) (scFv, V domains shown, YSD clone; also called BDG38_040) VH: QMQLVESGGGVVQPGRSLRLSCAASGFDFRTYGMHWVRQAPGKGLEWVAVIWYDGSITHYADSVKGRFTITRDNSKNTLNLQMNSLRAEDTAVYYCVRAPQWYLTAEAFDLWGQGTMVTVSS VL: SYVLTQPPSVSVAPGQTARITCGGNLIGTKLVHWYQQKPGQAPVLVVYDDSDRPSRIPERFSGSNSGNTATLTISRVEAGDEADYYCQVWDHNEDEVVFGGGTKLTVL | binding result | binds |

Reference source: patent US20240059769A1
